Just for reference, paper PMC11678778 is where these values come from.

# experimental_system: COX-2 (Homo sapiens)
# Construct: purchased
# Sequence (P35354 18-604): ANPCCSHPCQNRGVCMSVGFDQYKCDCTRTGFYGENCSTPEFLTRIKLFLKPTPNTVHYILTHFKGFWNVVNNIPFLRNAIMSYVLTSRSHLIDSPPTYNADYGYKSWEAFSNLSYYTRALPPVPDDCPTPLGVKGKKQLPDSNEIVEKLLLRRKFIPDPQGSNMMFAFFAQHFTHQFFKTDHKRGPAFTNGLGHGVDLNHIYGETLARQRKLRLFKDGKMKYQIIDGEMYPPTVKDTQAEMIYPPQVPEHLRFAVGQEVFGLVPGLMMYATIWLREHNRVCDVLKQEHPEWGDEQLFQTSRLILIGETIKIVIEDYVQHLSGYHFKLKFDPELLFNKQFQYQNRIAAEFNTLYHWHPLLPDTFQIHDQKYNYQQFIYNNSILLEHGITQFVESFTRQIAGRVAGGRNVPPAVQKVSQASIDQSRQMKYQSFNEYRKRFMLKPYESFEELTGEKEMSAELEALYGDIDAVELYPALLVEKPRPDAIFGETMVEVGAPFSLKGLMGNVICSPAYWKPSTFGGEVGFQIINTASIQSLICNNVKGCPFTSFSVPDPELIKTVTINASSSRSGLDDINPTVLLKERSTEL
# test: Cyclooxygenase inhibition assay (colorimetric, peroxidase activity, TMPD oxidation)
# Type: biochemical
# condition_summary: ratio of IC50 values
Classification field: 1 = Selectivity Ratio: (COX-2/COX-1) at or over 0.2; -1 = Selectivity Ratio: (COX-2/COX-1) under 0.2.

Would you please look over these solved cases?
* Cc1ccc(C(=O)C2=C(O)c3ccccc3S(=O)(=O)N2CCCN2CCN(c3ccccn3)CC2)cc1 | 1
* O=C(C1=C(O)c2ccccc2S(=O)(=O)N1CC(=O)N1CCN(c2ccccc2)CC1)c1ccc(Br)cc1 | -1
* O=C(C1=C(O)c2ccccc2S(=O)(=O)N1CCCN1CCN(c2ccccn2)CC1)c1ccc(Br)cc1 | -1

(Q) Hello, I need to know if O=C(C1=C(O)c2ccccc2S(=O)(=O)N1CCCN1CCN(c2ncccn2)CC1)c1ccc(Br)cc1 has measured Selectivity Ratio: (COX-2/COX-1) not below 0.2. Thanks!
(A) 1

(Q) Check this compound for Selectivity Ratio: (COX-2/COX-1) at or above 0.2: COc1ccc(C(=O)C2=C(O)c3ccccc3S(=O)(=O)N2CCCN2CCN(c3ncccn3)CC2)cc1
(A) 1

(Q) Confirm if Selectivity Ratio: (COX-2/COX-1) reported for the compound O=C(C1=C(O)c2ccccc2S(=O)(=O)N1CCCN1CCN(c2ncccn2)CC1)c1ccc(F)cc1 is 0.2 or above.
(A) 1

(Q) # check: Selectivity Ratio: (COX-2/COX-1) of COc1ccc(C(=O)C2=C(O)c3ccccc3S(=O)(=O)N2CCCN2CCN(c3ccccn3)CC2)cc1 is greater than or equal to 0.2
(A) -1

(Q) Hello, I need to know if O=C(C1=C(O)c2ccccc2S(=O)(=O)N1CCCN1CCN(c2ccccn2)CC1)c1ccc(F)cc1 has measured Selectivity Ratio: (COX-2/COX-1) not below 0.2. Thanks!
(A) -1

###

Catalogue of pIC50 readings, one per entry.
# experimental_system: COX-1 (Ovis aries, UniProt P05979)
# Sequence (P05979 25-600): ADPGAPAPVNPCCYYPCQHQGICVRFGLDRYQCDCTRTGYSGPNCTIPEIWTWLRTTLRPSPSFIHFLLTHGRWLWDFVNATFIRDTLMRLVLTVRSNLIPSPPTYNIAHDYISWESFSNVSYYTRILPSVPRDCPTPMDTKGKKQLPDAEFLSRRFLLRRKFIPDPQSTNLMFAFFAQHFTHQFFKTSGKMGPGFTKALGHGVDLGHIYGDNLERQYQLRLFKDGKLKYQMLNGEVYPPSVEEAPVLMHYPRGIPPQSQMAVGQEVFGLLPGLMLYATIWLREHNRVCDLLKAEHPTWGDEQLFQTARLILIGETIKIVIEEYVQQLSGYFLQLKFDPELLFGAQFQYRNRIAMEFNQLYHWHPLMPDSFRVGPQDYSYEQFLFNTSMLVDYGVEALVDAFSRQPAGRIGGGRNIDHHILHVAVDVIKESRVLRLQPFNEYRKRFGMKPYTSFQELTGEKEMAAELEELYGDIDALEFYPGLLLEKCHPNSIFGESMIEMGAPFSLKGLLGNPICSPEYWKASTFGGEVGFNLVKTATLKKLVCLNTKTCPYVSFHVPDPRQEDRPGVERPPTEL
Please express pIC50 as -log10 of the molar concentration.

* Cc1ccc(C(=O)C2=C(O)c3ccccc3S(=O)(=O)N2CCCN2CCN(c3ccccn3)CC2)cc1 | 3.88
* COc1ccc(C(=O)C2=C(O)c3ccccc3S(=O)(=O)N2CCCN2CCN(c3ccccn3)CC2)cc1 | 3.62
* COc1ccc(C(=O)C2=C(O)c3ccccc3S(=O)(=O)N2CCCN2CCN(c3ncccn3)CC2)cc1 | 3.90

Turning now to a further record.
(Q) Using the record for O=C(C1=C(O)c2ccccc2S(=O)(=O)N1CCCN1CCN(c2ncccn2)CC1)c1ccc(Br)cc1 , report its pIC50.
(A) 3.92

###

Sequence of the target: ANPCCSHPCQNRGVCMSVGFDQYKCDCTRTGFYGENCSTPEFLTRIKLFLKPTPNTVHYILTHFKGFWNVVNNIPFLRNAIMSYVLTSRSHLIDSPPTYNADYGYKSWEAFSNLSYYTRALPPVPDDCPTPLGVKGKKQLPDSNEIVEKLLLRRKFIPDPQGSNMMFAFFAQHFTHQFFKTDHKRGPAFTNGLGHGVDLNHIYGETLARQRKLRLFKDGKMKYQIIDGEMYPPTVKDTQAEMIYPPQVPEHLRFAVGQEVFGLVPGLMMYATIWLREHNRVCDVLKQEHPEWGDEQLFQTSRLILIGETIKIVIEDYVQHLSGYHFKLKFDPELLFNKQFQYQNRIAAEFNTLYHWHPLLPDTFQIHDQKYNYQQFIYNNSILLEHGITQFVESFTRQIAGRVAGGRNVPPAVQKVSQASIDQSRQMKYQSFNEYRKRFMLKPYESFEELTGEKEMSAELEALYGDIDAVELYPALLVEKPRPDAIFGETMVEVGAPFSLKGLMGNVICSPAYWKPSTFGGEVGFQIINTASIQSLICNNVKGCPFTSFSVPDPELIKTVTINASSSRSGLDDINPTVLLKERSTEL
assay_endpoint: pIC50
Quick note: pIC50 means taking -log10 of the concentration in moles per liter.

* O=C(C1=C(O)c2ccccc2S(=O)(=O)N1CCCN1CCN(c2ccccn2)CC1)c1ccc(Br)cc1 | 4.75
* O=C(C1=C(O)c2ccccc2S(=O)(=O)N1CCCN1CCN(c2ncccn2)CC1)c1ccc(F)cc1 | 4.59
* COc1ccc(C(=O)C2=C(O)c3ccccc3S(=O)(=O)N2CCCN2CCN(c3ncccn3)CC2)cc1 | 4.58
* O=C(C1=C(O)c2ccccc2S(=O)(=O)N1CCCN1CCN(c2ncccn2)CC1)c1ccc(Br)cc1 | 4.23
* Cc1ccc(C(=O)C2=C(O)c3ccccc3S(=O)(=O)N2CCCN2CCN(c3ccccn3)CC2)cc1 | 4.20

We next turn to a different compound, shown below.
(Q) Entry O=C(C1=C(O)c2ccccc2S(=O)(=O)N1CCCN1CCN(c2ccccn2)CC1)c1ccc(F)cc1 has what pIC50?
(A) 4.74
